Measured Kd at 1 h, listed per entry for reference.
tested on: hair cells of cochlea organ of corti cultures; assay: in vitro
Answer with a number only, understood to be in µM.

1) CN[C@@H]1[C@@H](O)[C@@H](O[C@@H]2[C@@H](O)[C@H](O[C@H]3OC(CN)=CC[C@H]3N)[C@@H](N)C[C@H]2N)OC[C@]1(C)O [sisomicin, reference compound]; 120

Kd at 1 h for CN[C@@H]1[C@@H](O)[C@@H](O[C@@H]2[C@@H](O)[C@H](O[C@H]3OC(CN)=CC[C@H]3N)[C@@H](N)C[C@H]2NS(C)(=O)=O)OC[C@]1(C)O [1N-methyl sulfonyl sisomicin, 1-N-methylsulfonyl sisomicin] is 1500
